Data credit: patent US12139487B2

target-entity: BRM (Homo sapiens, UniProt P51531)
Construct: made in house; host or cells: High Five insect cells
Sequence (P51531 whole entry): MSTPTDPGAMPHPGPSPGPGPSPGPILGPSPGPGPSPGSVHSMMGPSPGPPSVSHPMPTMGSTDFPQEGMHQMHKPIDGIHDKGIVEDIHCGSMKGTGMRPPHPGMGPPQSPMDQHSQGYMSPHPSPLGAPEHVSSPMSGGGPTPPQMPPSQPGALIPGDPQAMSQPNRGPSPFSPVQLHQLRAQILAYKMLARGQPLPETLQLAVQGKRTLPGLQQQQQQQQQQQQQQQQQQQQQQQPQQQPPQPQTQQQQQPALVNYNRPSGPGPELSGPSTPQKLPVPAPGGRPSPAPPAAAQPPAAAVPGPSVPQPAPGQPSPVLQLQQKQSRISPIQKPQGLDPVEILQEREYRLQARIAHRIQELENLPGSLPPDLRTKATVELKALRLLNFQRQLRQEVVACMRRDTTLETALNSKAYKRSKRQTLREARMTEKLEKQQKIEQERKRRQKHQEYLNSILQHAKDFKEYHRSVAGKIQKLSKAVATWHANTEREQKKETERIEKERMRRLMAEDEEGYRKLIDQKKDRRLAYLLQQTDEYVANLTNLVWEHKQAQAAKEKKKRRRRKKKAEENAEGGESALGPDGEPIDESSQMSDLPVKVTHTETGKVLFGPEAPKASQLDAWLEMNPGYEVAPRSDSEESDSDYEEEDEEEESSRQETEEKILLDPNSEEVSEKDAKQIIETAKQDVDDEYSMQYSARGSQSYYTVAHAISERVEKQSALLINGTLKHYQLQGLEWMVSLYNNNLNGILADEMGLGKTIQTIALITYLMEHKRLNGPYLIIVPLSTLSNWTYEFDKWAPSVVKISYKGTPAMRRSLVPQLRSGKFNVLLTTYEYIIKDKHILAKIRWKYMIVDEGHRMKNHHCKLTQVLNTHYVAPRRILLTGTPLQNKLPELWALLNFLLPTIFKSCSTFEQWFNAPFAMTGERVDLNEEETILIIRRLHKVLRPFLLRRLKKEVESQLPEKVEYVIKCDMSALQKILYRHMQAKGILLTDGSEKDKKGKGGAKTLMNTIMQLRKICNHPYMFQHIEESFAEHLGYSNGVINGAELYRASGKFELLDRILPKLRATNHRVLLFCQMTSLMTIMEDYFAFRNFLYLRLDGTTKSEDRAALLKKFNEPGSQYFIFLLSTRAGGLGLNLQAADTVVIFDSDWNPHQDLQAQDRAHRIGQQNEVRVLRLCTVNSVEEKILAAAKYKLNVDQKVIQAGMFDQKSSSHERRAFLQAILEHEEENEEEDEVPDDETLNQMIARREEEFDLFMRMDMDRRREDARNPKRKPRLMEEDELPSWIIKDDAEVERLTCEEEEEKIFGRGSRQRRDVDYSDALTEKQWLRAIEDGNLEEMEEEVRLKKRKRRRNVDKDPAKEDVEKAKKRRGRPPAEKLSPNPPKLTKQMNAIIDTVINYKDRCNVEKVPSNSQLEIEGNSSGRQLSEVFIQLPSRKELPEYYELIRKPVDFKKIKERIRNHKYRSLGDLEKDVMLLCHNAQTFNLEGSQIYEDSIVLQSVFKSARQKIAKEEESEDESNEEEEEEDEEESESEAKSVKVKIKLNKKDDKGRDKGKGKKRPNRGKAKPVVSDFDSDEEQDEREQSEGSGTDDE
experiment: ATPase catalytic activity assay (ADP-Glo), BRM
Assay type: biochemical
test-settings: ATPase assay, selectivity BRG1/BRM, Table 10
Ratio (BRG1 IC50 (μM) divided by BRM IC50 (μM)) vs 20: less than gives yes; not less than gives no.

Previously resolved entries follow.
| molecule | class |
| --- | --- |
| C[C@@H]1CN(c2cccc(-c3ccc4cnc(CNC(=O)c5cc(F)c6c(c5)S(=O)(=O)[C@@H](F)CCO6)cc4n3)n2)C[C@H](C)O1 [Compound 14] | yes |
| CCOc1nc(C(F)F)ccc1-c1ccc2cnc(CNC(=O)c3cc(F)c4c(c3)S(=O)(=O)[C@@H](F)COC4)cc2n1 | no |
| CCCc1ccnc2c1OCCN2c1ccc2cnc(CNC(=O)c3cc(F)c4c(c3)S(=O)(=O)[C@@H](F)CCO4)cc2n1 | yes |

-- ask Dear reviewer, please state whether Cc1cnc2c(c1)OCCN2c1ccc2cnc(CNC(=O)c3ccc4c(c3)S(=O)(=O)[C@@H](F)CCO4)cc2n1 has Ratio (BRG1 IC50 (μM) divided by BRM IC50 (μM)) strictly beneath 20.
-- reply yes

-- ask Dear colleague, could you confirm whether Ratio (BRG1 IC50 (μM) divided by BRM IC50 (μM)) of C#Cc1ccc2c(n1)N(c1ccc3cnc(CNC(=O)c4cc(F)c5c(c4)S(=O)(=O)[C@@H](F)CCO5)cc3n1)CCO2 falls below 20? Thanks.
-- reply yes

-- ask # TODO verify Ratio (BRG1 IC50 (μM) divided by BRM IC50 (μM)) < 20 strictly for this molecule: COc1cccc(-c2ccc3cnc(CNC(=O)c4cc(Cl)c5c(c4)S(=O)(=O)[C@@H](F)CCO5)cc3n2)n1
-- reply no
